Biological target: α-glycosidase
Assay: PNPG enzyme inhibition assay
Type: biochemical
experimental endpoint: IC50 (µM)
Numbers only, in µM.

>>> print(df.to_string())
                                   compound  unit_abbrev  reading
0  CC[C@H](C)/C=C(C)/C=C/C1=CC2=C(Cl)C(=O)[C@]3(C)OC(=O)[C@@H](C(C)=O)[C@@H]3C2=CO1 [compound 11, isochromophilone I]           µM     17.3

Attention now turns to another entry.
Incoming: Name the recorded IC50 for CC[C@H](C)/C=C(C)/C=C/C1=CC2=C(Cl)C(=O)[C@](C)(OC(C)=O)C(=O)C2=CN1 [compound 14, scleratioramine] .
Outgoing: 166
